tested on: RPMI-8226 leukemia; test: NCI-60 one-dose screen, 48 h; settings: 10 µM unless noted
This is part of a sample that, as a whole, favours compounds with a hit. Of some 83,000 tested, about 20% had one in any assay. Calls of active or inactive are those of the source. The calls were made as follows: active = growth percent below 10; inactive = the rest.
Labels: active, inactive

| molecule | assay-target | category-label |
| --- | --- | --- |
| CC(=N\N=C(N)N)/C(=N/N=C(N)N)c1ccccc1 | RPMI-8226 leukemia | inactive |
| C[C@@H](c1ccc2c(c1)[nH]c1ccc(Cl)cc12)c1nc2ccccc2[nH]1 | RPMI-8226 leukemia | inactive |
| CSC1=Nc2c(c(C)c(-c3ccccc3)n2CCCCl)C2=NC(=O)CN12 | RPMI-8226 leukemia | inactive |
| CCCC[N+](C)(N)CCCC | RPMI-8226 leukemia | inactive |
| CCN(CC)CCCNc1c2ccc(Cl)cc2nc2ccc(OC)cc12 | RPMI-8226 leukemia | active |
| COC1=CC(c2ccc[nH]2)=N/C1=C\c1[nH]c(C)c(C(=O)CCCCC(=O)NC(C)(C)C)c1C | RPMI-8226 leukemia | inactive |
| CCOC(=O)c1csc(-c2ccc(COC(=O)c3ccccc3)o2)n1 | RPMI-8226 leukemia | inactive |
| CCNc1nnc(COc2ccc(CNC(=O)CCCC/C=C/C(C)C)cc2OC)o1 | RPMI-8226 leukemia | inactive |
| CCCCCCCCCCCCCCCCCC1=NCCN1CCNC(C)=O | RPMI-8226 leukemia | inactive |
| C/C(=N\Nc1ccc(Cl)cn1)c1ccc2ccccc2n1 | RPMI-8226 leukemia | inactive |
| N#Cc1c2cccnc2c2nnc3cc(Cl)c(Cl)cc3n12 | RPMI-8226 leukemia | inactive |
| CCCCN(CCCC)CC(O)CN(CC)CC (configuration not stated) | RPMI-8226 leukemia | inactive |
| COc1cccc2c1n([O-])c1cccc(OC)c1[n+]2=O | RPMI-8226 leukemia | inactive |
| CC(C)CSc1nc(-c2ccc(F)cc2)c(C#N)c(N2CCCCC2)n1 | RPMI-8226 leukemia | inactive |
| N#Cc1ccc(NC2c3ccccc3CC2O)cc1 (configuration not stated) | RPMI-8226 leukemia | inactive |
| Cc1ccc(C(=O)Nc2ccc(CN3CCN(C)CC3)c(C(F)(F)F)c2)cc1C#Cc1cnc(N)c2ccc(C#N)cc12 | RPMI-8226 leukemia | inactive |
| O=C(OCC1CC2(Cl)C(Cl)=C(Cl)C1(Cl)C2(Cl)Cl)C1C(C(=O)OCC2CC3(Cl)C(Cl)=C(Cl)C2(Cl)C3(Cl)Cl)C2(Cl)C(Cl)=C(Cl)C1(Cl)C2(Cl)Cl (configuration not stated) | RPMI-8226 leukemia | inactive |
| CCC(CCCN1C(=O)c2ccccc2C1=O)Nc1cc(OC)cc2c(C)ccnc12 (configuration not stated) | RPMI-8226 leukemia | inactive |
| O=C(Nc1ccc(-n2cc(-c3ccncc3)c(-c3ccc(Cl)c(O)c3)n2)cc1)c1cc(C(F)(F)F)cc(C(F)(F)F)c1 | RPMI-8226 leukemia | inactive |
| CC/C(=N\Nc1nc2ccccc2n1C)c1ccccn1 | RPMI-8226 leukemia | inactive |
| COc1cc(-c2c3c(cn2CCN2CCCCC2)-c2oncc2CC3)cc(OC)c1OC | RPMI-8226 leukemia | inactive |
| CCOC(=O)C1=C(C(F)(F)F)NC(=O)NC1CN1C(=O)c2ccccc2C1=O (configuration not stated) | RPMI-8226 leukemia | inactive |
| CC1(C)CC(=O)C2=C(C1)Oc1nc(N)c(C#N)c(N)c1C2c1ccc(F)cc1 (configuration not stated) | RPMI-8226 leukemia | inactive |
| Cc1sc(NC(=O)c2ccc(C(C)(C)C)cc2)c(C(=O)O)c1C | RPMI-8226 leukemia | inactive |
| CCn1cnc(C[C@H](NC(=O)[C@@H](NC(=O)Nc2cc(C(F)(F)F)cc(C(F)(F)F)c2)C(C)(C)C)C(=O)OC)c1 | RPMI-8226 leukemia | active |
| CCCCCCNC(=O)Oc1ccc(/C(=C(/C)Cc2ccc(OC)cc2)c2ccc(OCCN(C)C)cc2)cc1 | RPMI-8226 leukemia | inactive |
| CC(=O)Nc1nc(C)c(C(=O)NNC(=O)Nc2ccccc2)s1 | RPMI-8226 leukemia | inactive |
| CC(O)c1cc[cH-]c1.[Fe+2].c1cc[cH-]c1 (configuration not stated) | RPMI-8226 leukemia | inactive |
| COc1ccc(CN2C(=O)/C(=C\C(=O)c3ccc(OCCN4CCCC4)cc3)c3ccccc32)cc1 | RPMI-8226 leukemia | active |
| O=S(=O)(O)CCI | RPMI-8226 leukemia | inactive |
| N#Cc1ccc(OCc2nc(N)nc(N)c2-c2ccc(Cl)c(Cl)c2)cc1 | RPMI-8226 leukemia | inactive |
| CCCCCc1ccnc(CC(=O)c2ccc(OC)cc2)c1 | RPMI-8226 leukemia | inactive |
| CCCOC(=O)c1c(C)n(C)c2scc[n+]12 | RPMI-8226 leukemia | inactive |
| CCCC(=O)NNc1[nH]c(-c2ccc(OC)cc2)cc1C(=O)OCC | RPMI-8226 leukemia | inactive |
| COc1cc2cn3c4ccc(O)cc4[nH]c(=O)c3c2cc1OC | RPMI-8226 leukemia | active |
| COc1ccc(-c2nc(SCC(C)C)nc(Nc3ccc(C(=O)O)cc3)c2C#N)cc1 | RPMI-8226 leukemia | inactive |
| Oc1ccc(CN(Cc2ccc(C(F)(F)F)cc2)Cc2ccc(O)c3ncccc23)c2cccnc12 | RPMI-8226 leukemia | inactive |
| COc1ccc(C(=O)NCCNc2nccc(-c3c(-c4ccc(F)cc4)nc4sccn34)n2)cc1 | RPMI-8226 leukemia | inactive |
| CCN(CC)C(=O)C1(C)CCCC2(C)c3cc(OC(C)=O)ccc3CCC12 (configuration not stated) | RPMI-8226 leukemia | inactive |
| CCC(CCCN1C(=O)c2ccccc2C1=O)Nc1cc(OC)cc2cccnc12 (configuration not stated) | RPMI-8226 leukemia | inactive |
| CCCC(=O)Nc1ccccc1C(=O)O | RPMI-8226 leukemia | inactive |
| COc1cc(-c2nc3c(c(C)nc4c3nnn4-c3ccccc3)c(=O)o2)cc(OC)c1OC | RPMI-8226 leukemia | inactive |

---

System: PC-3 prostate
Experiment: NCI-60 one-dose screen, 48 h
Settings: 10 µM unless noted
Experimental: Growth inhibition of the PC-3 human tumor cell line is measured as a screen for anti-cancer activity. Cells are grown in 96 well plates and exposed to the test compound for 48 hours. Compounds are tested at a single concentration, which is 10^-5 M for most compounds. The reported endpoint is percent growth (GI% or GIPRCNT), where numbers from 0 - 100% represent growth inhibition, and numbers from -100% - 0 represent cell death. For example, a value of 40 represents 60% growth inhibition. […]
Compounds without any hit were thinned out: in the full panel of roughly 83,000, 20% have a hit. The source made the active and inactive calls. The calls were made as follows: active = growth percent below 10; inactive = the rest.
Labels: active, inactive

| compound | category-label |
| --- | --- |
| COc1ccc(C2C3(C#N)C(N)=NC(=C(C#N)C#N)C23C#N)cc1OC (stereo unspecified) | inactive |
| Nc1nc2cc(O)ccc2n2cc3c(F)cccc3c12 | inactive |
| O=c1c2c(c3ccccc3n1-c1ccccc1)NC(=S)NC2c1ccccc1 (stereo unspecified) | active |
| COc1ccc(C(=O)c2no[n+]([O-])c2C(=O)c2ccc(OC)cc2)cc1 | active |
| CCCCCC(=C/c1ccccc1)/C=N/N=C(N)N | inactive |
| CC1(C)N=C(N)N=C(N)N1c1cccc(CCCCOc2ccccc2)c1 | active |
| Oc1ccccc1/C=N/N=C/c1c(O)ccc2ccccc12 | inactive |
| COc1cc(-c2c3c(cn2CCN2CCCCC2)-c2oncc2CC3)cc(OC)c1OC | inactive |
| COc1cccc2c1nc1cccc(OC)c1[n+]2[O-] | inactive |
| COc1cc2ncnc(Nc3ccc4c(cnn4C(=O)Nc4ccccc4)c3)c2cc1OC | inactive |
| CCCCCCCCC/C(=N\NC(=O)c1ccncc1)c1ccc(O)c(O)c1O | inactive |

---

system: SN12C renal; assay: NCI-60 one-dose screen, 48 h (100 = growth as untreated, 0 = no growth, -100 = all killed); details: 10 µM unless noted
Compounds without any hit were thinned out: in the full panel of roughly 83,000, 20% have a hit.

| compound | assay-target | growth, % |
| --- | --- | --- |
| COc1ccc(Oc2[nH]n(C3=Nc4ccccc4Sc4ccccc43)c(=O)c2C#N)cc1 | SN12C renal | 102 |
| COc1ccc(/C=C2\SC(=O)N(Cc3cc(=O)oc4ccc(OC)cc34)C2=O)cc1 | SN12C renal | 90.7 |
| CC[C@H](Nc1ncnc2nc[nH]c12)c1nc2cccc(NCc3ccc(C(=O)NO)nc3)c2c(=O)n1-c1ccccc1 | SN12C renal | 38.9 |
| CCOC(=O)c1cc(C(=O)c2ccc(Br)cc2)n2cc(C)cc(C)c12 | SN12C renal | 101 |
| CCOC(=O)C(C)C(C)(O)c1ccccc1 (stereo unspecified) | SN12C renal | 98.2 |
| Cc1ccc(C(=O)Nc2ccc(CN3CCN(C)CC3)c(C(F)(F)F)c2)cc1C#Cc1cncc2ncccc12 | SN12C renal | -98.2 |
| COC(=O)/C=C1/CCCCC1(C)C(=O)OC (stereo unspecified) | SN12C renal | 101 |
| COC(=O)c1cc(=O)nc(N/N=C/c2ccccc2O)s1 | SN12C renal | 90.9 |
| N#CC1=C(N2CCOCC2)NC2c3ccccc3Sc3ccccc3N2C1=N (stereo unspecified) | SN12C renal | 103 |
| O=[N+]([O-])c1ccc(-c2ncc(-c3ccc(O)cc3O)[nH]2)cc1 | SN12C renal | 101 |
| O=c1[nH]c2cc(O)ccc2n2cc3c(F)cccc3c12 | SN12C renal | 53.6 |
| COC(=O)C(Cc1cnc[nH]1)N1CC(=O)N2[C@@H](c3ccccc3)SC[C@H]2C1=O (stereo partly specified) | SN12C renal | 107 |
| CC/C(=N\Nc1nc2ccccc2n1C)c1ccccn1 | SN12C renal | 13.6 |
| O=C1Nc2c(c(=O)n(-c3ccccc3)c3ccccc23)C(c2ccc(Cl)cc2)N1 (stereo unspecified) | SN12C renal | 76.3 |
| O=C(CBr)OCc1ccc([N+](=O)[O-])o1 | SN12C renal | 98.8 |
| Oc1ccc(Br)cc1/C=N/NC(=S)NC12CC3CC(CC(C3)C1)C2 | SN12C renal | 20.1 |
| CCOC(=O)c1csc(-c2ccc(COC(=O)c3ccccc3)o2)n1 | SN12C renal | 96.1 |
| C/C(=N\Nc1cccc(Cl)n1)c1ccccn1 | SN12C renal | 13.6 |
| O=Nc1ccc(O)c2ccccc12 | SN12C renal | -50.1 |
| Cc1c(O)c(N=Nc2ccc(C(=O)O)c(O)c2)c2ccccc2c1O | SN12C renal | 96.3 |
| CCCC(=O)NNc1[nH]c(-c2cc(OC)c(OC)c(OC)c2)cc1C(=O)OCC | SN12C renal | 108 |
| Cc1ccc(C(=O)C(Br)C(Br)c2ccccc2)cc1 (stereo unspecified) | SN12C renal | 86.4 |
| N/C(=N\O)c1ccncc1 | SN12C renal | 106 |
| Cn1cnc2nc[nH]c2c1=S | SN12C renal | 94.8 |
| Oc1ccccc1/C=N/N=C/c1c(O)ccc2ccccc12 | SN12C renal | 85.1 |
| CCN(CC)CCCNc1c2ccc(Cl)cc2nc2ccc(OC)cc12 | SN12C renal | 10.7 |
| COc1cc2cc3cc4cc(OC)c(OC)cc4c(C)[n+]3cc2cc1OC (tested in a mixture with another compound) | SN12C renal | 85.7 |
| CSc1nc(N)n2nccc2n1 | SN12C renal | 96.8 |
| COc1ccc(Cn2cc3c(c2)-c2oncc2CC3)cc1OC | SN12C renal | 38.9 |
| CCCC[N+](C)(N)CCCC | SN12C renal | 104 |
| FC(F)(F)c1cccc(-c2[nH]ncc2-c2nnnn2-c2ccccc2)c1 | SN12C renal | 65.5 |
| CCOC(=O)CSSCC(=O)OCC | SN12C renal | 103 |
| C[C@H]1C[C@@H](n2cnc3c(N)nccc32)[C@H](O)[C@@H]1O | SN12C renal | 92.3 |
| CC1(C)Oc2cc3oc(=O)ccc3cc2C[C@@H]1OCCOS(=O)(=O)c1ccc(C#N)cc1 | SN12C renal | 91.5 |
| Nc1cc(N)c2nc(NCCc3ccc(Cl)c(Cl)c3)cnc2c1 | SN12C renal | 16.5 |
| CC(C)(C)C(=O)CCCCCCCC/C=C/CCCC(O)c1ccco1 (stereo unspecified) | SN12C renal | 110 |
| O=C(O)CS(=O)c1ccc(Cl)cc1 (stereo unspecified) | SN12C renal | 104 |
| COc1ccc(C(=O)NCCNc2nccc(-c3c(-c4ccc(F)cc4)nc4sccn34)n2)cc1 | SN12C renal | 70 |
| NC(N)=Nc1ccc(/C=C2\C=Cc3ccccc32)cc1 | SN12C renal | 79.3 |
| O=C1/C(=C/c2ccc(Cl)cc2)CCC/C1=C\c1ccc(Cl)cc1 | SN12C renal | 92 |
| CC(=O)Nc1nc(C)c(C(=O)NNC(=O)Nc2ccccc2)s1 | SN12C renal | 92.3 |
| COc1ccc(C(=O)CN2C(=O)NC(c3ccccc3)(c3ccccc3)C2=O)cc1 | SN12C renal | 101 |
| Oc1ccc(N=Nc2ccc(N=Nc3ccccc3)cc2)cc1 | SN12C renal | 57.1 |
| Cc1cc2cn3c4ccc(O)cc4[nH]c(=O)c3c2cc1C | SN12C renal | 38.5 |
| C[C@@H](c1ccc2c(c1)[nH]c1ccc(Cl)cc12)c1nc2ccccc2[nH]1 | SN12C renal | 89.6 |
| Cc1c(C(N)=O)sc2c1c(=O)n(Cc1ccccc1)c1nnc(S(C)(=O)=O)n21 | SN12C renal | 80.3 |
